Taken from patent US12383631.

assay_system: T1, human IL-18BP-His (human, UniProt O95998 31-194, limits assumed)
T1 construct: also called His-tagged human IL-18BP; not shown: His tag
T1 sequence (looked up): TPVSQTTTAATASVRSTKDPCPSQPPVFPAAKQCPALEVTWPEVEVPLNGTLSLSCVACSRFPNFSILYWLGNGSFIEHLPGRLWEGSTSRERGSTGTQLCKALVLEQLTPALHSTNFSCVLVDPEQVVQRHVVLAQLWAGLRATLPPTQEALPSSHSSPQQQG
experiment_notes: AlphaLISA of free IL-18BP
Would you mind telling me the reported Kd of each entry?
Give the value; after it, write the unit.

Look over these answered cases.
INSERT INTO results (binder, observed_property, obs_value) VALUES
  ('IL-18 polypeptide C174 (ligand, also called K8L, E6K, V11I, C38A, K53A, T63A, C76A, C127A) YFGKLKSLLSIIRNLNDQVLFIDQGNRPLFEDMTDSDARDNAPRTIFIISMYADSQPRGMAVAISVKCEKISTLSAENKIISFKEMNPPDNIKDTKSDIIFFQRSVPGHDNKMQFESSSYEGYFLAAEKERDLFKLILKKEDELGDRSIMFTVQNED', 'Kd', '0.14 nM'),
  ('IL-18 polypeptide C154 (ligand, also called V11I, E31A, D37A, C38A, K53A, C76A, C127A) YFGKLESKLSIIRNLNDQVLFIDQGNRPLFADMTDSAARDNAPRTIFIISMYADSQPRGMAVTISVKCEKISTLSAENKIISFKEMNPPDNIKDTKSDIIFFQRSVPGHDNKMQFESSSYEGYFLAAEKERDLFKLILKKEDELGDRSIMFTVQNED', 'Kd', '2.12 nM'),
  ('IL-18 polypeptide C145 (ligand, also called V11I, C38A, K53A, S55A, C76A, C127A) YFGKLESKLSIIRNLNDQVLFIDQGNRPLFEDMTDSDARDNAPRTIFIISMYADAQPRGMAVTISVKCEKISTLSAENKIISFKEMNPPDNIKDTKSDIIFFQRSVPGHDNKMQFESSSYEGYFLAAEKERDLFKLILKKEDELGDRSIMFTVQNED', 'Kd', '9.74 nM');

Provide reported Kd for each item, in the same order as listed.
1. IL-18 polypeptide of SEQ ID NO: 50 (E06K, K53A, T63A) (ligand) YFGKLKSKLSVIRNLNDQVLFIDQGNRPLFEDMTDSDCRDNAPRTIFIISMYADSQPRGMAVAISVKCEKISTLSCENKIISFKEMNPPDNIKDTKSDIIFFQRSVPGHDNKMQFESSSYEGYFLACEKERDLFKLILKKEDELGDRSIMFTVQNED
2. IL-18 polypeptide C166 (ligand, also called V11I, C38A, S55T, C76A, C127A) YFGKLESKLSIIRNLNDQVLFIDQGNRPLFEDMTDSDARDNAPRTIFIISMYKDTQPRGMAVTISVKCEKISTLSAENKIISFKEMNPPDNIKDTKSDIIFFQRSVPGHDNKMQFESSSYEGYFLAAEKERDLFKLILKKEDELGDRSIMFTVQNED
3. IL-18 polypeptide of SEQ ID NO: 62 (E6K, C38A, K53A, C127A) (ligand) YFGKLKSKLSVIRNLNDQVLFIDQGNRPLFEDMTDSDARDNAPRTIFIISMYADSQPRGMAVTISVKCEKISTLSCENKIISFKEMNPPDNIKDTKSDIIFFQRSVPGHDNKMQFESSSYEGYFLAAEKERDLFKLILKKEDELGDRSIMFTVQNED

Output:
340 nM
0.02 nM
69.6 nM

Provide reported Kd for each item, in the same order as listed.
1. IL-18 polypeptide C153 (ligand, also called V11I, D37A, C38A, K53A, C76A, C127A) YFGKLESKLSIIRNLNDQVLFIDQGNRPLFEDMTDSAARDNAPRTIFIISMYADSQPRGMAVTISVKCEKISTLSAENKIISFKEMNPPDNIKDTKSDIIFFQRSVPGHDNKMQFESSSYEGYFLAAEKERDLFKLILKKEDELGDRSIMFTVQNED
2. IL-18 polypeptide C161 (ligand, also called K8R, V11I, C38A, C76A, Q103E, C127A) YFGKLESRLSIIRNLNDQVLFIDQGNRPLFEDMTDSDARDNAPRTIFIISMYKDSQPRGMAVTISVKCEKISTLSAENKIISFKEMNPPDNIKDTKSDIIFFERSVPGHDNKMQFESSSYEGYFLAAEKERDLFKLILKKEDELGDRSIMFTVQNED

Output:
1: 4.55 nM; 2: 0.06 nM

Provide reported Kd for each item, in the same order as listed.
1. IL-18 polypeptide C176 (ligand, also called E6K, V11I, C38A, I49M, K53A, T63A, C76A, C127A) YFGKLKSKLSIIRNLNDQVLFIDQGNRPLFEDMTDSDARDNAPRTIFIMSMYADSQPRGMAVAISVKCEKISTLSAENKIISFKEMNPPDNIKDTKSDIIFFQRSVPGHDNKMQFESSSYEGYFLAAEKERDLFKLILKKEDELGDRSIMFTVQNED
2. IL-18 polypeptide C157 (ligand, also called V11I, C38A, K53A, C76A, C127A, D132A) YFGKLESKLSIIRNLNDQVLFIDQGNRPLFEDMTDSDARDNAPRTIFIISMYADSQPRGMAVTISVKCEKISTLSAENKIISFKEMNPPDNIKDTKSDIIFFQRSVPGHDNKMQFESSSYEGYFLAAEKERALFKLILKKEDELGDRSIMFTVQNED
3. IL-18 polypeptide of SEQ ID NO: 60 (E6K, C38Q, K53A) (ligand) YFGKLKSKLSVIRNLNDQVLFIDQGNRPLFEDMTDSDQRDNAPRTIFIISMYADSQPRGMAVTISVKCEKISTLSCENKIISFKEMNPPDNIKDTKSDIIFFQRSVPGHDNKMQFESSSYEGYFLACEKERDLFKLILKKEDELGDRSIMFTVQNED
4. IL-18 polypeptide C159 (ligand, also called V11I, C38A, K53A, C76A, H109A, C127A) YFGKLESKLSIIRNLNDQVLFIDQGNRPLFEDMTDSDARDNAPRTIFIISMYADSQPRGMAVTISVKCEKISTLSAENKIISFKEMNPPDNIKDTKSDIIFFQRSVPGADNKMQFESSSYEGYFLAAEKERDLFKLILKKEDELGDRSIMFTVQNED
5. IL-18 polypeptide C164 (ligand, also called V11I, C38A, S55H, C76A, C127A) YFGKLESKLSIIRNLNDQVLFIDQGNRPLFEDMTDSDARDNAPRTIFIISMYKDHQPRGMAVTISVKCEKISTLSAENKIISFKEMNPPDNIKDTKSDIIFFQRSVPGHDNKMQFESSSYEGYFLAAEKERDLFKLILKKEDELGDRSIMFTVQNED

Output:
1. 25.8 nM
2. 13.7 nM
3. 24.8 nM
4. 0.55 nM
5. 0.08 nM
